target: Histone deacetylase; experiment: Inhibitory activity against histone deacetylase (HDAC) enzyme obtained from H1299 human lung carcinoma cell lysates
Here the recorded IC50 is given for each entry.
Reply numerically in nM, unit not repeated.

Reference set (5 entries):
{"molecule": "O=C(/C=C/c1ccc(CNCCc2cc3ccccc3[nH]2)cc1)NO", "endpoint_unit": "nM", "IC50": 46}
{"molecule": "O=C(/C=C/c1ccc(CNCCc2ccc3c(c2)OCO3)cc1)NO", "endpoint_unit": "nM", "IC50": 30}
{"molecule": "O=C(/C=C/c1ccc(CNCc2c[nH]c3ccccc23)cc1)NO", "endpoint_unit": "nM", "IC50": 59}
{"molecule": "O=C(/C=C/c1ccc(CN(CCO)CCc2cnc3ccccc3c2)cc1)NO", "endpoint_unit": "nM", "IC50": 24}
{"molecule": "CC(Cc1c[nH]c2ccccc12)NCc1ccc(/C=C/C(=O)NO)cc1 (configuration not stated)", "endpoint_unit": "nM", "IC50": 24}

Please find the next molecule below.
Under Histone deacetylase: report IC50 of O=C(/C=C/c1ccc(CN(CCOC(=O)NCc2ccoc2)CCc2c[nH]c3ccccc23)cc1)NO . 370
